# Test system: CCRIS mutagenicity, Ames/micronucleus/aberration tests
# ASSAY INFO: CCRIS mutagenicity studies
# CONDITION NOTES: Test System: AMES SALMONELLA TYPHIMURIUM; Strain/Indicator: TA100; Metabolic Activation: RAT, S-9, AROCLOR; Method: STANDARD PLATE
# Source text: The CCRIS database contains chemical records with carcinogenicity, mutagenicity, tumor promotion, and tumor inhibition test results. It was developed by the National Cancer Institute (NCI). Data are derived from studies cited in primary journals, current awareness tools, NCI reports, and other sources. Test results have been reviewed by experts in carcinogenesis and mutagenesis. CCRIS provides historical information from the years 1985 - 2011. It is no longer updated. […]
Activity calls are given as the source filed them. How the calls were made is not given here.
Your reply should match one of these outcome classes. Yes (active), No (inactive)

What did the test return for N#Cc1ccc(C(=O)ON(OCc2ccccc2)C(=O)c2ccccc2)cc1 ?
Yes

Then CC(=O)ON(OCc1ccc(C)cc1)C(=O)c1ccccc1 ?
Yes

Then CC(=O)ON(OCc1ccccc1)C(=O)c1ccccc1 ?
Yes

Then CC(=O)ON(OC(C)C)C(=O)c1ccccc1 ?
Yes

Then CCCCOc1cc(C)ccc1C(=O)NOC(C)=O ?
Yes

Then CC(=O)ON(OCc1ccc([N+](=O)[O-])cc1)C(=O)c1ccccc1 ?
Yes

Then CC(=O)OCCCCCCCCONC(=O)c1ccccc1 ?
No

Then CCCCOc1cc(OC)ccc1C(=O)NOC(C)=O ?
Yes

* * *

# Test system: CCRIS mutagenicity, Ames/micronucleus/aberration tests
# ASSAY INFO: CCRIS mutagenicity studies
# CONDITION NOTES: Test System: UDS RAT HEPATOCYTES; Strain/Indicator: THY INCORP; Metabolic Activation: NONE; Method: AUTORADIOGRAPHY
Active and inactive are the calls of the source. The rule behind the calls is not given here.
Your reply should match one of these outcome classes. t for active, f for inactive

What did the test return for Cc1cc2ncccc2c2nc(N)n(C)c12 ?
t

Then C=CCOc1ccccc1OCC(O)CNC(C)C (stereo unspecified) ?
f

Then ClC1C(Cl)C(Cl)C(Cl)C(Cl)C1Cl (stereo unspecified) ?
f

Then Nc1ccc(N=Nc2ccccc2)c(N)n1 ?
t

Then CCC1(c2ccccc2)C(=O)NC(=O)NC1=O ?
f

Then CC(C)(C)N(CC(O)COc1cccc2c1CC(O)C(O)C2)N=O (stereo unspecified) ?
t

Then C[C@@H]1C[C@]2(O[C@@H]2C)C(=O)O[C@@H]2CCN(C)C/C=C(/COC(=O)[C@]1(C)O)C2=O ?
t

Then CC/C1=C/[C@@H](C)[C@](C)(OC(C)=O)C(=O)OC/C2=C/CN(C)CC[C@@H](OC1=O)C2=O ?
t

Then CCOC(=O)NNc1nncc2ccccc12 ?
f

Then C[C@@H]1C[C@@]2(O[C@H]2C)C(=O)O[C@@H]2CCN3CC=C(COC(=O)[C@]1(C)O)[C@H]23 ?
t

Then CCCCC=O ?
t

* * *

# System: CCRIS mutagenicity, Ames/micronucleus/aberration tests
# ASSAY INFO: CCRIS mutagenicity studies
# CONDITION NOTES: Test System: AMES SALMONELLA TYPHIMURIUM; Strain/Indicator: TA98; Metabolic Activation: RAT LIVER S-9, AROCLOR 1254; Method: PREINCUBATION
The source made the active and inactive calls. No rule for the calls is given here.
Your reply should match one of these outcome classes. Y (active), N (inactive)

What did the test return for Nc1cc([N+](=O)[O-])ccc1-c1ccc([N+](=O)[O-])cc1 ?
Y

Then Nc1ccc(N=Nc2ccc3c(c2)C(=O)/C(=N/Nc2ccc(Nc4ccc(N/N=C5/C(=O)c6cc(N=Nc7ccc(N)cc7N)ccc6C=C5S(=O)(=O)O)cc4S(=O)(=O)O)cc2)C(S(=O)(=O)O)=C3)c(N)c1 ?
Y

Then CC(C)(C)NC(=O)[C@H]1CC[C@H]2[C@@H]3CC=C4C=C(C(=O)O)CC[C@]4(C)[C@H]3CC[C@]12C ?
N

Then Nc1ccc(-c2ccc(N)cc2)cc1 ?
Y
